molecular target: Cytochrome P450 2D6 (Homo sapiens); assay: Cytochrome panel assay with activity outcomes; conditions: recombinant CYP, pro-luciferin dealkylation, luminescence, p450-cyp2d6; series mostly up to 57.1 µM
In all, about 16,000 compounds went through this assay and about 2,600 (16%) were called active. Roughly 20% stayed inconclusive and do not appear here. The call rests on the fitted dose curve; in most records, active means well fitted curve in the direction sought with a large enough effect; inconclusive means small, poorly fitted or top-dose-only effect, or effect the other way; inactive means no such curve, though single readings can be large or run the other way. Only a sample is shown.
Write down one outcome, taken from class 1 (active), class 0 (inactive)

| molecule | answerLabel |
| --- | --- |
| O=C(c1cnccn1)N1CCC2(CC1)CN(c1ccccc1)C2 | class 0 |
| CC1(C)CC(O)CC(C)(C)N1CC(O)COCCOc1ccc(Br)cc1 (centres undefined) | class 1 |
| N[C@H](C(=O)O)[C@@H]1C[C@@H]1C(=O)O | class 0 |
| CC(=O)NCCNc1ncnc2ccc(-c3ccccc3C(F)(F)F)cc12 | class 1 |

Q: Call for entry CC(=O)CCCCn1c(=O)c2c(ncn2C)n(C)c1=O :
Result: class 0

Q: Call for entry CCCCn1c(SCC(N)=O)nc2ccc(N3CCOCC3)cc2c1=O :
Result: class 0

Q: Call for entry N[C@H](C(=O)O)C1[C@H](C(=O)O)[C@H]1C(=O)O (some centres undefined) :
Result: class 1

* * *

target: Cytochrome P450 2D6 (Homo sapiens); experiment: Cytochrome panel assay with activity outcomes; settings: recombinant CYP, pro-luciferin dealkylation, luminescence, p450-cyp2d6; series mostly up to 57.1 µM
Screen size: about 16,000 compounds; about 2,600 (16%) were called active. Another 20% or so got no clear call; they are omitted. These entries were drawn from the full list.
parameter: AC50

Observe how each entry below is paired with its result.
| compound | AC50 |
| --- | --- |
| Cc1onc(-c2ccccc2Cl)c1C(=O)Nc1nnc(Cc2ccc(Cl)cc2)s1 | inactive |
| CCn1c(SCc2ccc(C)cc2)nnc1-c1nn(-c2ccccc2)ccc1=O | inactive |
| CCc1ccc(CSc2nccn2-c2ccccc2)cc1 | 17.8 µM (active) |
| CCN(CC)C(=O)C1CC(=O)N(c2ccc(OC)cc2)C1c1ccc(OC)cc1 (configuration not stated) | inactive |
| COc1ccccc1CCn1c(=O)c(-c2cn(C)c3ccccc23)nc2cncnc21 | inactive |
| Cn1c(CNC(=O)Nc2ccccc2)nnc1SCc1ccccc1 | inactive |

Lab book: AC50 of Clc1ccc(CSc2nccn2Cc2ccccc2)cc1 noted as 5.01 µM (active)

Lab book: AC50 of CCC(C)NC(=O)NC(=O)N(C1CCCCC1)S(C)(=O)=O (configuration not stated) noted as inactive

Lab book: AC50 of N#C/C(=C\c1cccs1)C(=O)NCC1CCCO1 (configuration not stated) noted as inactive

Lab book: AC50 of Cc1cnn(-c2cc(N/N=C/c3ccccc3F)ncn2)c1 noted as inactive

Lab book: AC50 of Cc1ccc2cn[nH]c2c1NC(=S)NC(=O)c1ccccc1 noted as inactive

Lab book: AC50 of CCN1CCc2c(sc(N)c2C(N)=O)C1 noted as inactive

* * *

List of activity, negative = inhibition values.
biological target: Cytochrome P450 2D6 (Homo sapiens) (UniProt P10635); assay: Cytochrome panel assay with activity outcomes; conditions: recombinant CYP, pro-luciferin dealkylation, luminescence, p450-cyp2d6; series mostly up to 57.1 µM; on activity, negative = inhibition: on the % scale 0 is the no-effect control and ±100 the full control effect
Sequence (P10635 whole entry, looked up): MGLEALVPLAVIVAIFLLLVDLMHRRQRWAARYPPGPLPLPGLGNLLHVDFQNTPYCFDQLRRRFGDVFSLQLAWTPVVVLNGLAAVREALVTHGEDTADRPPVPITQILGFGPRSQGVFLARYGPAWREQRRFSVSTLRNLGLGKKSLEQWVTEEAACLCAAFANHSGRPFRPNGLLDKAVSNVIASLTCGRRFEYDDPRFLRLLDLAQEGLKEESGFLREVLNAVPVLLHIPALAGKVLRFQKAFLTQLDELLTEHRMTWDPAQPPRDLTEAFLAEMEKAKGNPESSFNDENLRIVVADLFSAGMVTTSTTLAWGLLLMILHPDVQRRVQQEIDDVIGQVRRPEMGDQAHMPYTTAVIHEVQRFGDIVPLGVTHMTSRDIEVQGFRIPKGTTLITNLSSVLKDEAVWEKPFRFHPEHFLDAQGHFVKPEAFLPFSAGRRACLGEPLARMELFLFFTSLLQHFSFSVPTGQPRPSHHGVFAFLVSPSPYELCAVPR
Screen size: about 16,000 compounds; about 2,600 (16%) were called active. About 20% were inconclusive and are not listed. The list is a sample of the results.

| compoundString | recordedMeasurement |
| --- | --- |
| C[C@@]12C[C@H](O)[C@@H]3[C@H](CCC4=CC(=O)CC[C@]43C)[C@H]1CC[C@@H]2c1csc(N)n1 | -10.6% [at 11.4 µM] (inactive) |
| CC1(C)[C@@H]2CC[C@]1(C)[C@@H](OC(=O)CSC#N)C2 | -15% [at 11.4 µM] (inactive) |
| OCCCN=C1CCCCC1 | -10.2% [at 11.4 µM] (inactive) |
| CC1(C)OC[C@@H]2O[C@H](n3cnc4c(N)nc(Cl)nc43)[C@@H](OS(C)(=O)=O)[C@@H]2O1 | 8.22% [at 11.4 µM] (inactive) |
| N#C/C(=C\NC(=S)c1ccncc1)c1nc2ccccc2s1 | -9.99% [at 11.4 µM] (inactive) |

Would you kindly look at the next entry?
Lab book: activity, negative = inhibition of Clc1ccc(CSc2ncnc3c2ncn3[C@@H]2CCCCO2)cc1 noted as -9.38% [at 11.4 µM] (inactive)
